Every entry's value here was drawn from patent US20160297884A1.

EXPERIMENTAL TARGET: T1, cynomolgus monkey BCMA (cynomolgus monkey, UniProt A0A2K5UD97 1-53)
T1 construct: Soluble analyte in SPR; construct not described; also called cyBCMA; Cyno BCMA
T1 sequence (A0A2K5UD97 entry or part of it): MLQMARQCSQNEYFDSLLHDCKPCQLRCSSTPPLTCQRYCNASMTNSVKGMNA
TEST DESCRIPTION: SPR, IgG immobilised, 37 C
EXPERIMENTAL READOUT: kon (M⁻¹ s⁻¹)
Write the number in M⁻¹ s⁻¹ without appending the unit.

Solved cases below.
L3.PY/H2.HA (antibody, V domains shown, IgG) VH: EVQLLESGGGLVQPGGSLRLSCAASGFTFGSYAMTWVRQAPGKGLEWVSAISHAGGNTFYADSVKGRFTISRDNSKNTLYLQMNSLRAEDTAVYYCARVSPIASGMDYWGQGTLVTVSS VL: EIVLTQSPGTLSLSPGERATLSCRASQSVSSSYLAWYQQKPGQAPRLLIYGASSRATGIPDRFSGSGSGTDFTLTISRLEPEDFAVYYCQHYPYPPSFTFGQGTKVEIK : 1.99e+06
L3.PY/L1.AH/H2.YQ (antibody, V domains shown, IgG) VH: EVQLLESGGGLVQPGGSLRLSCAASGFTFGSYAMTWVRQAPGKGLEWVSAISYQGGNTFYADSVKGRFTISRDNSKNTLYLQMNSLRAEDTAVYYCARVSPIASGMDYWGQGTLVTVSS VL: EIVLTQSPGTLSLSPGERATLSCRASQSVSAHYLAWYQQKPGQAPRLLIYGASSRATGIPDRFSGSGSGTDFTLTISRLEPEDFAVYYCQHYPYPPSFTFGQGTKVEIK : 1.58e+06
L3.PY/L1.PS/H2.QL (antibody, V domains shown, IgG) VH: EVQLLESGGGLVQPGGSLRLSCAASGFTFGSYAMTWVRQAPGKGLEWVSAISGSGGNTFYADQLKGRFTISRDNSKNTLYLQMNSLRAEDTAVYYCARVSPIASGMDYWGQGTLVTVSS VL: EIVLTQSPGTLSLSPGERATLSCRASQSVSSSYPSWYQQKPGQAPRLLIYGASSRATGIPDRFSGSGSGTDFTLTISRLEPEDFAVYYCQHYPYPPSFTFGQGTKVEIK : 657000
L3.PY/L1.PS/H2.DY (antibody, V domains shown, IgG) VH: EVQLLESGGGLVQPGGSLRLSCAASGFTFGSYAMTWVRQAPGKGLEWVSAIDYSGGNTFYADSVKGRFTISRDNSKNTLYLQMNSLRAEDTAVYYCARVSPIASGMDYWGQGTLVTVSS VL: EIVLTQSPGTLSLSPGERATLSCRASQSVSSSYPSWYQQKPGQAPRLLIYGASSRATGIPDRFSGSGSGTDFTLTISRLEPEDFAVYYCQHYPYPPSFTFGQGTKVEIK : 1.9e+06
L3.PY/L1.AH/P6E01 (antibody, V domains shown, IgG) VH: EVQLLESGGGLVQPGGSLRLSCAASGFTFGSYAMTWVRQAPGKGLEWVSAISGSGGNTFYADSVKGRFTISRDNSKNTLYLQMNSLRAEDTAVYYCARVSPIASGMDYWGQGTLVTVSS VL: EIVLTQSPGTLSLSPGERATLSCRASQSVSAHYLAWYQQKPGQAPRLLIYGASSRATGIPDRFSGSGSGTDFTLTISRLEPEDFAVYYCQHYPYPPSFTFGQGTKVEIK : 2.16e+06

I would be grateful if you could share the reported kon for L3.PY/H2.QL (antibody, V domains shown, IgG) VH: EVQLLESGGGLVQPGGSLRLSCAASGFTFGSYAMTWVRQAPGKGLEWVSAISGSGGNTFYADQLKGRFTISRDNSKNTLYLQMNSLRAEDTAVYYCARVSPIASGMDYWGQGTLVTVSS VL: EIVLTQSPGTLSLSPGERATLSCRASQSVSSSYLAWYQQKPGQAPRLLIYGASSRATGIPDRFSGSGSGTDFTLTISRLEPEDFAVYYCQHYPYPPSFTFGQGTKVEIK . 2.05e+06

Fill blank: measured kon of the binder L3.PY/H3.AE (antibody, V domains shown, IgG) VH: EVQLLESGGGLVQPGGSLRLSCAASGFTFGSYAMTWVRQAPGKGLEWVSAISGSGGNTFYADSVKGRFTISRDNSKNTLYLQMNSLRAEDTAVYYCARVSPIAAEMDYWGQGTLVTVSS VL: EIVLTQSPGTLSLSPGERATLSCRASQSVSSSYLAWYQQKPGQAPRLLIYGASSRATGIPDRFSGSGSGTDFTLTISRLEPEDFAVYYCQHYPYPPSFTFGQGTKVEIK is ____. 2.82e+06

// returns reported kon for input L3.PY/L1.PS/H3.TAQ (antibody, V domains shown, IgG) VH: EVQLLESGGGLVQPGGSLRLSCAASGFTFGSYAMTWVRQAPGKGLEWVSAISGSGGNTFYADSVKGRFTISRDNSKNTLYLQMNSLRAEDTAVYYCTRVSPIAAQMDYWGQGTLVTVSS VL: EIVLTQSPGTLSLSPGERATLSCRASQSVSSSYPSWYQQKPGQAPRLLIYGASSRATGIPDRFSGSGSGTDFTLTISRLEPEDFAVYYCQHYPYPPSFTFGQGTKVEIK 2.58e+06

Entry under review: L3.PY/L1.AH/H2.QL (antibody, V domains shown, IgG) VH: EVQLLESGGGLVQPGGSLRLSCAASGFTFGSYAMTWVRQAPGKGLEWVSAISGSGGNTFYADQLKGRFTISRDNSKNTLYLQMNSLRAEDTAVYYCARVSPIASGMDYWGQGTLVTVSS VL: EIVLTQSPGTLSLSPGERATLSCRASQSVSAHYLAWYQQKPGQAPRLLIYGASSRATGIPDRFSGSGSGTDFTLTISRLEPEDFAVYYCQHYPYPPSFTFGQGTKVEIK . Reported kon? 2.62e+06

Return reported kon; argument: L3.PY/L1.AH/H3.AQ (antibody, V domains shown, IgG) VH: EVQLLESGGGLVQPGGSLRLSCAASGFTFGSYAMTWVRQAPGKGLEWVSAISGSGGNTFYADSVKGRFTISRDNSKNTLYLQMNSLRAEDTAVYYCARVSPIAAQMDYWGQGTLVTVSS VL: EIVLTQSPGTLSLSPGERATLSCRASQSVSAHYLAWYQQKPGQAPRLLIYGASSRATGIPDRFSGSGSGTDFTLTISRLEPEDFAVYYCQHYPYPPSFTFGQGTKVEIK 2.24e+06
